# System: 361931-004-R-J1-PDC multicell spheroid viability
# experimental details: Anticancer human tumor 361931-004-R-J1-PDC patient-derived colon adenocarcinoma cell line growth inhibition [PI3K]
# applied conditions: second compound 10 µM; first compound 0.0316 µM; active compounds read low
Exercise: state measured viability, T/C for each of the compounds provided.
Numbers only, in %.

Worked set:
CCCS(=O)(=O)Nc1ccc(F)c(C(=O)c2c[nH]c3ncc(-c4ccc(Cl)cc4)cc23)c1F + CC(Nc1ncnc2nc[nH]c12)c1cc2cccc(Cl)c2c(=O)n1-c1ccccc1    99.3
CC(C)n1nc(-c2ccc3oc(N)nc3c2)c2c(N)ncnc21 + Cc1nc(NC(=O)N2CCCC2C(N)=O)sc1-c1ccnc(C(C)(C)C(F)(F)F)c1    45
CC(C)NCC(C(=O)N1CCN(c2ncnc3c2C(C)CC3O)CC1)c1ccc(Cl)cc1 (stereo unspecified) + CC(Nc1ncnc2nc[nH]c12)c1cc2cccc(Cl)c2c(=O)n1-c1ccccc1    106

State recorded viability, T/C for all listed compounds.
1. Cn1ncnc1[C@H]1c2n[nH]c(=O)c3cc(F)cc(c23)N[C@@H]1c1ccc(F)cc1 + CC(Nc1ncnc2nc[nH]c12)c1cc2cccc(Cl)c2c(=O)n1-c1ccccc1
2. Cn1ncc(Cl)c1-c1cc(C(=O)NC(CN)Cc2cccc(F)c2)sc1Cl (stereo unspecified) + CC(Nc1ncnc2nc[nH]c12)c1cc2cccc(Cl)c2c(=O)n1-c1ccccc1
3. C[C@@H](NC(=O)c1ncnc(N)c1Cl)c1ncc(C(=O)Nc2cc(C(F)(F)F)c(Cl)cn2)s1 + Cc1nc(NC(=O)N2CCCC2C(N)=O)sc1-c1ccnc(C(C)(C)C(F)(F)F)c1

[102, 97.2, 77.8]

----------
# Tested on: 361931-004-R-J1-PDC multicell spheroid viability
# experimental details: Anticancer human tumor 361931-004-R-J1-PDC cell line growth inhibition [PI3K];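 also: spheroids exposed to agents for seven days before readout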
# applied conditions: second compound 1 µM; first compound 1 µM; active compounds read low
quantity name: viability, T/C (%)
Answers are plain numbers, in %.

Worked set:
CC(Cn1ccc(-c2ccc(C#N)c(Cl)c2)n1)NC(=O)c1cc(C(C)O)[nH]n1 (stereo not given) + Cc1nc(NC(=O)N2CCCC2C(N)=O)sc1-c1ccnc(C(C)(C)C(F)(F)F)c1    96
Cn1nccc1Nc1nccc(-c2ccn(C(CO)c3ccc(Cl)c(F)c3)c(=O)c2)n1 (stereo not given) + Cc1nc(NC(=O)N2CCCC2C(N)=O)sc1-c1ccnc(C(C)(C)C(F)(F)F)c1    83.2
CC1(C)CCC(CN2CCN(c3ccc(C(=O)NS(=O)(=O)c4ccc(NCC5CCOCC5)c([N+](=O)[O-])c4)c(Oc4cnc5[nH]ccc5c4)c3)CC2)=C(c2ccc(Cl)cc2)C1 + Cc1nc(NC(=O)N2CCCC2C(N)=O)sc1-c1ccnc(C(C)(C)C(F)(F)F)c1    83.1
CNC(=O)c1ccc(N2C(=S)N(c3ccc(C#N)c(C(F)(F)F)c3)C(=O)C2(C)C)cc1F + CC(Nc1ccc2c(c1)OCCn1cc(N3C(=O)OCC3C(F)F)nc1-2)C(N)=O    78

Tested on 361931-004-R-J1-PDC multicell spheroid viability, the item CC(C)NCC(C(=O)N1CCN(c2ncnc3c2C(C)CC3O)CC1)c1ccc(Cl)cc1 (stereo not given) + CC(Nc1ccc2c(c1)OCCn1cc(N3C(=O)OCC3C(F)F)nc1-2)C(N)=O showed viability, T/C equal to 51.7
